Sourced from ChEMBL document CHEMBL5512679

Run Description: Stability in human plasma assessed as compound remaining incubated upto 120 mins […] by LC-MS analysis
Format: ADME, cell-free
Experimental Conditions: read-out: Stability
Attribute Measured: remaining at 2 h

Answered examples (2):
IN: I would be grateful if you could share the reported remaining at 2 h for `O=C(NCc1ccccc1)[C@H](Cc1c[nH]c2ccccc12)NCc1ccc(Oc2ccccc2)cc1` .
OUT: < 80%

IN: I would be grateful if you could share the reported remaining at 2 h for `CCOC(=O)[C@@H]1CS[C@@]2(C(=O)Nc3ccc(Br)cc32)N1C(=O)c1ccc(Cl)cc1` .
OUT: 0%

Consider the additional compound presented here.
IN: I would be grateful if you could share the reported remaining at 2 h for `O=S(=O)(Nc1ccc2c(c1)CCN2Cc1ccc(C(F)(F)F)cc1C(F)(F)F)C1CCCCC1` .
OUT: < 80%

* * *

Test System: hERG (KCNH2) (Homo sapiens, UniProt Q12809)
Sequence (Q12809 whole entry): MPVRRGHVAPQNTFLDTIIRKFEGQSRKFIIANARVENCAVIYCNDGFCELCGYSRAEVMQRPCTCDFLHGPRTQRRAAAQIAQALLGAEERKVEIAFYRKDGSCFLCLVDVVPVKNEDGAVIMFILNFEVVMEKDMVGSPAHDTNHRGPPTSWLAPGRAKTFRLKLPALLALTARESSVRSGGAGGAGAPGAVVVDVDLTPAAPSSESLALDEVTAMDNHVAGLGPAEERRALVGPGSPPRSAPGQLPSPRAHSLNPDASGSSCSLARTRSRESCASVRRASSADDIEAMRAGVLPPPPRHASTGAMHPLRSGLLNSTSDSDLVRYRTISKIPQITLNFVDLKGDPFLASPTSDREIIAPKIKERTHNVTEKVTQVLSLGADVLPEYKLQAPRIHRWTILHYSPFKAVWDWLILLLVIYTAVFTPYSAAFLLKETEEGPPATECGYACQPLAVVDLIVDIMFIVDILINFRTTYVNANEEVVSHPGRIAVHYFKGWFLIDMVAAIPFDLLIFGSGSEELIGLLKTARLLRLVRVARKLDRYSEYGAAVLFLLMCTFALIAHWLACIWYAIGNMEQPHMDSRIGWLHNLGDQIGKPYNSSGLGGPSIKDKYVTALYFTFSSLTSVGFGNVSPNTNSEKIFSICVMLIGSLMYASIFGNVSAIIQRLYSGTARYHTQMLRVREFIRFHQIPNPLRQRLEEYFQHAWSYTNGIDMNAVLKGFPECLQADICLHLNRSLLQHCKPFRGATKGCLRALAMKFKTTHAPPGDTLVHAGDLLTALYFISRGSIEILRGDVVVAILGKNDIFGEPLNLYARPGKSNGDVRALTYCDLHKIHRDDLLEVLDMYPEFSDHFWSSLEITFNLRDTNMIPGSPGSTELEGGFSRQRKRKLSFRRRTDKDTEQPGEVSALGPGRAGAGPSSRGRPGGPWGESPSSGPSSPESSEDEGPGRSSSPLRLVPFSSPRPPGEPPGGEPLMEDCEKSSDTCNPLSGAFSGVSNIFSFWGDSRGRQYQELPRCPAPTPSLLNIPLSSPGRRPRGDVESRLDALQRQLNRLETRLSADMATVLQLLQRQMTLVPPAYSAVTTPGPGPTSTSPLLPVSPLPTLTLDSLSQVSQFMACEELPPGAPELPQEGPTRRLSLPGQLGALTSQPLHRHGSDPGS
Run Description: Inhibition of hERG expressed in HEK293 cells at 10 uM by whole-cell patch clamp electrophysiology method relative to control
Format: toxicity, cell-based
Experimental Conditions: HEK293 cells that express hERG
// reported inhibition at 10 µM per item
Provide the reading as a plain figure in %.

IN: I would be grateful if you could share the reported inhibition at 10 µM for `O=C(Nc1cccc(C(F)(F)F)c1)c1ccc2nc(N3C(=O)c4ccccc4C3=O)sc2c1` .
OUT: 15

Consider the additional compound presented here.
IN: I would be grateful if you could share the reported inhibition at 10 µM for `Cc1cc(O)ccc1N/C=C/C(=O)c1ccccc1` .
OUT: 15

* * *

// reported inhibition at 10 µM per item
Test System: UniProtKB Q12809
Run Description: Inhibition of hERG transiently transfected in CHO cells at 10 uM at -100 mV holding potential by whole-cell patch clamp electrophysiology method relative to control
Format: toxicity, cell-based
Experimental Conditions: CHO cells transiently transfected with hERG
Provide the reading as a plain figure in %.

IN: I would be grateful if you could share the reported inhibition at 10 µM for `Oc1ccc2ccccc2c1CNCCc1c[nH]c2ccccc12` .
OUT: 30

Consider the additional molecule presented here.
IN: I would be grateful if you could share the reported inhibition at 10 µM for `CC(C)(C)CNC(=O)Nc1ccc2c(c1)CCN2Cc1ccc(F)cc1` .
OUT: 30

* * *

// reported CLint scaled per item
Run Description: Intrinsic clearance in human liver microsomes incubated upto 60 mins in presence of NADPH and UDPGA by LC-MS analysis
Assay type: ADME, Microsome
Experimental Conditions: read-out: CLH

IN: I would be grateful if you could share the reported CLint scaled for `O=S(=O)(Nc1ccc2c(c1)CCN2Cc1ccc(C(F)(F)F)cc1C(F)(F)F)C1CCCCC1` .
OUT: < 1 mL/min/kg

New cases:
IN: I would be grateful if you could share the reported CLint scaled for `O=C(NCc1ccccc1)[C@H](Cc1c[nH]c2ccccc12)NCc1ccc(Oc2ccccc2)cc1` .
OUT: < 80 mL/min/kg
